Numbers sourced from patent US7138361B2.

Test system: barnyardgrass (Echinochloa crus-galli)
test: Test B flooded paddy test
Format: in vivo
condition_details: Rate 1000 g/ha, scale of 0 to 100 where 0 is no effect and 100 is complete control, visually evaluated after 13 to 15 days
Entries and their Plant response rating, Barnyardgrass
// print number alone

>>> df
                                   compound  value_reported
0  CCC(CC)c1ccn(C2SCN(c3cccc(C(F)(F)F)c3)C2=O)n1 (stereo not shown)             100
1  CCC(C)c1ccn(C2SCN(c3cccc(OC(F)(F)F)c3)C2=O)n1 (stereo not shown)             100
2  Cc1ccn(C2SCN(c3cccc(C(F)(F)F)c3)C2=O)n1 (stereo not shown)              60

Ask: I have this compound here, CC(C)(C)c1ccn(C2CCN(c3cc(C(F)(F)F)cc(C(F)(F)F)c3)C2=O)n1 (stereo not shown) , and I need its recorded Plant response rating, Barnyardgrass.
Result: 80

Ask: I have this compound here, CC(C)(C)c1ccn(C2CCN(c3cccc(Br)c3)C2=O)n1 (stereo not shown) , and I need its recorded Plant response rating, Barnyardgrass.
Result: 0

Ask: I have this compound here, Cc1cc(N2CCC(n3ccc(C(C)(C)C)n3)C2=O)ccc1Cl (stereo not shown) , and I need its recorded Plant response rating, Barnyardgrass.
Result: 100

Ask: I have this compound here, CC(C)(C)c1ccn(C2CCN(c3cc(Cl)cc(Cl)c3)C2=O)n1 (stereo not shown) , and I need its recorded Plant response rating, Barnyardgrass.
Result: 100

* * *

Entries and their Plant response rating, Barnyardgrass
Tested on: barnyardgrass (Echinochloa crus-galli)
test: Test B preemergence
Assay type: in vivo
condition_details: preemergence; Rate 125 g/ha; scale of 0 to 100 where 0 is no effect and 100 is complete control; 13 to 15 days

These recorded examples may help you get a feel for the data.
>>> print(df.to_string())
                                   molecule                     observed_property  value_reported
0  CCCC(C)c1ccn(C2CCN(c3cccc(OCC)c3)C2=O)n1 (centres unmarked) [Compound 129]  Plant response rating, Barnyardgrass             100
1  CCC(C)c1ccn(C2CCN(c3ccc(F)c(C(F)(F)F)c3)C2=O)n1 (centres unmarked) [Compound 145]  Plant response rating, Barnyardgrass              70
2  COc1cc(N2CCC(n3ccc(C(C)C)n3)C2=O)ccc1Cl (centres unmarked) [Compound 120]  Plant response rating, Barnyardgrass             100
3  CCC(CC)c1ccn(C2CCN(c3cccc(OC)c3)C2=O)n1 (centres unmarked) [Compound 96]  Plant response rating, Barnyardgrass             100
4  CCCC(C)c1ccn(C2OCN(c3cccc(OC(F)F)c3)C2=O)n1 (centres unmarked) [Compound 132]  Plant response rating, Barnyardgrass             100
5  COc1cc(N2CCC(n3ccc(C(C)(C)C)n3)C2=O)ccc1Br (centres unmarked) [Compound 141]  Plant response rating, Barnyardgrass             100
6  CCC(C)c1ccn(C2CCN(c3ccc(Cl)c(OC)c3)C2=O)n1 (centres unmarked) [Compound 119]  Plant response rating, Barnyardgrass             100
7  CC(C)Oc1cccc(N2CCC(n3ccc(C(C)C)n3)C2=O)c1 (centres unmarked) [Compound 82]  Plant response rating, Barnyardgrass             100
8  CC(C)c1ccn(C2OCN(c3cccc(OC(F)(F)F)c3)C2=O)n1 (centres unmarked) [Compound 65]  Plant response rating, Barnyardgrass              90
9  CC(C)(C)c1ccn(C2CCN(c3ccc(F)c(C(F)(F)F)c3)C2=O)n1 (centres unmarked) [Compound 146]  Plant response rating, Barnyardgrass              90

Ask: I have this molecule here, CC(C)(C)c1ccn(C2CCN(c3cc(Cl)cc(Cl)c3)C2=O)n1 (centres unmarked) [Compound 55] , and I need its recorded Plant response rating, Barnyardgrass.
Result: 0

Ask: I have this molecule here, CC(C)Oc1ccn(C2CCN(c3cccc(C(F)(F)F)c3)C2=O)n1 (centres unmarked) [Compound 59] , and I need its recorded Plant response rating, Barnyardgrass.
Result: 0

Ask: I have this molecule here, COc1cc(N2CCC(n3ccc(C(C)(C)C)n3)C2=O)ccc1Cl (centres unmarked) [Compound 117] , and I need its recorded Plant response rating, Barnyardgrass.
Result: 100

Ask: I have this molecule here, CCOc1cccc(N2CCC(n3ccc(C(C)CC)n3)C2=O)c1 (centres unmarked) [Compound 126] , and I need its recorded Plant response rating, Barnyardgrass.
Result: 100

* * *

Test system: Nightshade
test: Test C preemergence
Type: in vivo
condition_details: Rate 62 g/ha, scale 0 to 100
Assign class by Plant response rating, Nightshade: not lower than 90 means y; lower than 90 means n.

Ask: Entry COc1cc(N2CCC(n3ccc(C(C)(C)C)n3)C2=O)ccc1Cl (stereo not drawn) : is its Plant response rating, Nightshade no less than 90?
Result: y

* * *

Tested on: Sunflower
test: Test C preemergence
Assay type: in vivo
condition_details: Rate 500 g/ha, visual evaluation after 12 to 14 days
observed_property: Plant response rating (0 to 100), Sunflower
// print number alone

                                   compound  value_reported
0  CC(C)c1cccc(N2CCC(n3ccc(C(C)(C)C)n3)C2=O)c1 (stereo not drawn) [Compound 111]               0
1  CCCC(C)c1ccn(C2SCN(c3cccc(C(F)(F)F)c3)C2=O)n1 (stereo not drawn) [Compound 92]              55
2  COc1cc(N2CCC(n3ccc(C(C)C)n3)C2=O)ccc1Cl (stereo not drawn) [Compound 120]             100
3  CCOc1cccc(N2CCC(n3ccc(C(C)(C)C)n3)C2=O)c1 (stereo not drawn) [Compound 130]              70
4  CC(C)(C)c1ccn(C2CCN(c3cccc(I)c3)C2=O)n1 (stereo not drawn) [Compound 88]              20

Please examine the following record next.
Ask: Notebook entry, Sunflower assay: Plant response rating (0 to 100), Sunflower of CCCC(C)c1ccn(C2OCN(c3cccc(C(F)(F)F)c3)C2=O)n1 (stereo not drawn) [Compound 89] = ?
Result: 60

* * *

Tested on: barnyardgrass (Echinochloa crus-galli)
test: Test C flooded paddy test
Format: in vivo
condition_details: Flooded Paddy; Rate 250 g/ha; scale 0 to 100, 0 no effect, 100 complete control
Entries and their Barnyardgrass plant response rating
// print number alone

In [3]: df
Out[3]:
                                   compound  value_reported
0  CC1(c2ccn(C3OCN(c4cccc(C(F)(F)F)c4)C3=O)n2)CC1 (stereo not drawn) [Compound 62]              20
1  CCCCC(CCCC)c1ccn(C2OCN(c3cccc(OC(F)(F)F)c3)C2=O)n1 (stereo not drawn) [Compound 113]               0
2  CCCC(C)c1ccn(C2CCN(c3cccc(OCC)c3)C2=O)n1 (stereo not drawn) [Compound 129]              80
3  O=C1C(n2ccc(C3CCC3)n2)SCN1c1cccc(OC(F)F)c1 (stereo not drawn) [Compound 45]             100
4  CCC(CC)c1ccn(C2OCN(c3cccc(OC(F)F)c3)C2=O)n1 (stereo not drawn) [Compound 131]             100

Ask: I have this compound here, CCC(C)c1ccn(C2SCN(c3cccc(C(F)(F)F)c3)C2=O)n1 (stereo not drawn) [Compound 20] , and I need its recorded Barnyardgrass plant response rating.
Result: 100

Ask: I have this compound here, CC(C)Oc1ccn(C2CCN(c3cccc(C(F)(F)F)c3)C2=O)n1 (stereo not drawn) [Compound 59] , and I need its recorded Barnyardgrass plant response rating.
Result: 0

Ask: I have this compound here, CCC(CC)c1ccn(C2CCN(c3cccc(OC(C)C)c3)C2=O)n1 (stereo not drawn) [Compound 84] , and I need its recorded Barnyardgrass plant response rating.
Result: 100

Ask: I have this compound here, CC(C)c1cccc(N2CCC(n3ccc(C(C)(C)C)n3)C2=O)c1 (stereo not drawn) [Compound 111] , and I need its recorded Barnyardgrass plant response rating.
Result: 20

Ask: I have this compound here, CC(C)(C)c1ccn(C2CCN(c3ccc4c(c3)CCC4)C2=O)n1 (stereo not drawn) [Compound 105] , and I need its recorded Barnyardgrass plant response rating.
Result: 20

Ask: I have this compound here, CCCC(C)c1ccn(C2OCN(c3cccc(OC(F)(F)F)c3)C2=O)n1 (stereo not drawn) [Compound 91] , and I need its recorded Barnyardgrass plant response rating.
Result: 100

Ask: I have this compound here, CSc1cccc(N2CCC(n3ccc(C(C)(C)C)n3)C2=O)c1 (stereo not drawn) [Compound 86] , and I need its recorded Barnyardgrass plant response rating.
Result: 100

* * *

Tested on: pigweed (Amaranthus retroflexus)
test: Test C preemergence
Assay type: in vivo
condition_details: preemergence, Rate 500 g/ha, visual evaluation after 12 to 14 days
Entries and their Plant response rating (0 to 100), Pigweed
// print number alone

These recorded examples may help you get a feel for the data.
In [3]: df
Out[3]:
                                   compound  value_reported
0  COc1cc(N2CCC(n3ccc(C(C)(C)C)n3)C2=O)ccc1Br (stereo not shown)             100
1  CCC(CC)c1ccn(C2CCN(c3cccc(OC)c3)C2=O)n1 (stereo not shown)              50
2  CC(C)(C)c1ccn(C2CCN(c3cccc(SC(F)(F)F)c3)C2=O)n1 (stereo not shown)              80

Ask: Notebook entry, pigweed (Amaranthus retroflexus) assay: Plant response rating (0 to 100), Pigweed of CC(C)(C)c1ccn(C2OCN(c3cccc(OC(F)F)c3)C2=O)n1 (stereo not shown) = ?
Result: 100
